- Measurement Target: T1, human CCR8 (C-C chemokine receptor type 8) expressed on cells (human, UniProt P51685 1-355)
- T1 construct: also called HuCCR8
- T1 sequence (P51685 whole entry): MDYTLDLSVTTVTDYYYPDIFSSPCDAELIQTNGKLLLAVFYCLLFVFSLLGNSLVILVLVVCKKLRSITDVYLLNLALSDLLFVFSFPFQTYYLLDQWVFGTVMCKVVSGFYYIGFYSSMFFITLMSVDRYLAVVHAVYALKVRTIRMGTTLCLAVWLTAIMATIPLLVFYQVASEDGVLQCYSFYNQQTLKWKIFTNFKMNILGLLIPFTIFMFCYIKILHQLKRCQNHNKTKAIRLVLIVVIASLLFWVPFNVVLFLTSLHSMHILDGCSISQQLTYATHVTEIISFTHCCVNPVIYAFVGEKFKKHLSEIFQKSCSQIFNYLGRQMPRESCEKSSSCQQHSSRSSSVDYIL
- Measurement Notes: on-cell affinity, flow cytometry on 293T cells expressing human CCR8
Reported Property: Kd (nM)
Please state the figure in nM; there is no need to write the unit.

Sample records with Kd:
Ask: Which Kd is listed for anti-CCR8-1-5 (antibody, V domains shown, Parental-1 heavy chain with a shuffled lambda light chain; Human IgG expressed in CHO cells) VH: QVQLVQSGAEVKKPGASVKVSCKASGYTFTSYYMHWVRQAPGQGLEWMGIINPSGGSTSYAQKFQGRVTMTRDTSTSTVYMELSSLRSEDTAVYYCARGVGNGFRFDYWGQGTLVT VL: QSALTQPPSVSGSPGQSITISCSGTSSDVGSYNLVSWYQQEPGKAPKLIIYEVNKRPSGVSNRFSGSKSGNTASLTISGLQAEDEADYHCSSYAGSSTYVVFGGGTKLTVL ?
Result: 1.36

Ask: Which Kd is listed for anti-CCR8-1-1 (antibody, V domains shown, Parental-1 heavy chain with a shuffled lambda light chain; Expressed from a mammalian expression vector in CHO cells as human IgG) VH: QVQLVQSGAEVKKPGASVKVSCKASGYTFTSYYMHWVRQAPGQGLEWMGIINPSGGSTSYAQKFQGRVTMTRDTSTSTVYMELSSLRSEDTAVYYCARGVGNGFRFDYWGQGTLVT VL: QSALTQPPSVSGSPGQSITISCTGTSSDVGTYNLVSWYQQHPGNAPKLMIYEVTKRPSGVSNRFSGSKSGNTATLTISGLQAEDEADYHCSSYAGSITHVVFGGGTKLTVL ?
Result: 1.01

Ask: Which Kd is listed for anti-CCR8-1-2 (antibody, V domains shown, Parental-1 heavy chain with a shuffled lambda light chain; Human IgG expressed in CHO cells) VH: QVQLVQSGAEVKKPGASVKVSCKASGYTFTSYYMHWVRQAPGQGLEWMGIINPSGGSTSYAQKFQGRVTMTRDTSTSTVYMELSSLRSEDTAVYYCARGVGNGFRFDYWGQGTLVT VL: QSALTQPASVSGSPGQSITISCTGTSGDVGSYSLVSWYQHHPSRAPKLIIYEVNKRPSGVSDRFSGSKSGNTASLTITGLQAEDEAHYFCSSYTGNINLPVVFGGGTKLTVL ?
Result: 1.06

---
Ask: Which Kd is listed for anti-CCR8-1-4 (antibody, V domains shown, Parental-1 heavy chain with a shuffled lambda light chain; Human IgG expressed in CHO cells) VH: QVQLVQSGAEVKKPGASVKVSCKASGYTFTSYYMHWVRQAPGQGLEWMGIINPSGGSTSYAQKFQGRVTMTRDTSTSTVYMELSSLRSEDTAVYYCARGVGNGFRFDYWGQGTLVT VL: QSALTQPASVSGSPGQSITISCSGTSSNIGKYNLVSWYQQHPGEAPTLLIYEATKRPSGVSNRFSGSKSGNTASLTISGLQAEDEADYICSSYAGSRVFVVFGGGTKLTVL ?
Result: 0.28

Ask: Which Kd is listed for anti-CCR8-1-3 (antibody, V domains shown, Parental-1 heavy chain with a shuffled lambda light chain; Human IgG expressed in CHO cells) VH: QVQLVQSGAEVKKPGASVKVSCKASGYTFTSYYMHWVRQAPGQGLEWMGIINPSGGSTSYAQKFQGRVTMTRDTSTSTVYMELSSLRSEDTAVYYCARGVGNGFRFDYWGQGTLVT VL: QSALTQPPSVSGSPGQSITISCSGTSSDVGIYNLVSWYQQHPGKAPKLIIYEVIKRPSGISNRFSGFKSGNTASLTISGLQAEDEADYYCSSYAGPVTYVVFGGGTKLTVL ?
Result: 1.38

Ask: Which Kd is listed for anti-CCR8-1 (antibody, human IgG1, V domains shown) VH: QVQLVQSGAEVKKPGASVKVSCKASGYTFTSYYMHWVRQAPGQGLEWMGIINPSGGSTSYAQKFQGRVTMTRDTSTSTVYMELSSLRSEDTAVYYCARAVRNRFRFDYWGQGTLVTVSS VL: QSALTQPASVSGSPGQSITISCTGTSSDVGSYNLVSWYQQHPGKAPKLMIYEVSKRPSGVSNRFSGSKSGNTASLTISGLQAEDEADYYCSSYAGSSTFVVFGGGTKLTVL ?
Result: 0.41

Ask: Which Kd is listed for anti-CCR8-parental-1 (antibody, V domains shown, Full-length human IgG; also called parental antibody; H23188/L1037) VH: QVQLVQSGAEVKKPGASVKVSCKASGYTFTSYYMHWVRQAPGQGLEWMGIINPSGGSTSYAQKFQGRVTMTRDTSTSTVYMELSSLRSEDTAVYYCARGVGNGFRFDYWGQGTLVT VL: QSALTQPASVSGSPGQSITISCTGTSSDVGSYNLVSWYQQHPGKAPKLMIYEVSKRPSGVSNRFSGSKSGNTASLTISGLQAEDEADYYCSSYAGSSTFVVFGGGTKLTVL ?
Result: 1.06
